Please go through the items and note down their melting point.
Please reply with the bare figure in °C and do not write the unit itself.

Would you mind telling me what melting point value was observed for C[C@H]1CCCC[C@H]1Nc1c(C(N)=O)cnn2cccc12 [Compound 18g] ?
158.6

Given the entry CC(C)(CNc1c(C#N)cnn2cccc12)N1CCOCC1 [Compound 49e] , report its measured melting point.
178.8

Reported melting point, molecule NC(=O)c1cnn2cccc2c1NCC1CCCO1 (stereo not shown) [Compound 51m] : ____
120

Query (molecule): C[C@@H]1CCCC[C@@H]1Nc1c(C(N)=O)cnn2cccc12 [Compound 18i] ; field requested: melting point
154.7

Return reported melting point; argument: NC(=O)c1cnn2cccc2c1NC1CCC(O)CC1 (stereo not shown) [Compound 51i]
192.2

Record request: melting point value, item CN(C)C(CNc1c(C#N)cnn2cccc12)c1ccco1 (stereo not shown) [Compound 49h]
106.9

Entry under review: NC(=O)c1cnn2cccc2c1NC1CCCCCC1 [Compound 52i] . Reported melting point?
279.2

Can you share its melting point? I mean this molecule: COc1ccccc1C(CNc1c(C#N)cnn2cccc12)N1CCOCC1 (stereo not shown) [Compound 50b]
156.9

Tell me the measured melting point of N#Cc1cnn2cccc2c1Nc1ccccc1 [Compound 52e] , please.
163.5

Fill in: melting point of N#Cc1cnn2cccc2c1NC1(c2ccc(Cl)cc2Cl)CC1 [Compound 49k] is ___
207.7
